assay_protocol: Evaluated for ionization constant (pKa4) by titrations performed in presence of MeOH solvent at a dielectric constant of 62
Assay type: physicochemical
experimental_context: MeOH cosolvent; read-out: pKa4
property_name: pKa
Output: the number by itself.

Need pKa of COC(=O)CN(CCN(CC(=O)[O-])Cc1ccccc1O)Cc1ccccc1O.[Na+] , thanks.
2.68

* * *

assay_protocol: Evaluated for ionization constant (pKa6) by titrations performed using the method of Yasuda and Shedlovsky
Assay type: physicochemical
experimental_context: read-out: pKa6
property_name: pKa
Output: the number by itself.

Need pKa of O=C(O)CN(CCN(CC(=O)O)Cc1ccccc1O)Cc1ccccc1O , thanks.
0.92
